Values compiled from ChEMBL document CHEMBL3085752.

# ASSAYED_TARGET: Histone deacetylase (Homo sapiens) (UniProt Q13547+O15379+Q9UBN7+Q92769+Q9UQL6+Q8WUI4+Q9BY41+Q96DB2+P56524+Q9UKV0+Q969S8)
# PROCEDURE_TEXT: Inhibition of HDAC in human SW620 cells assessed as acetylated histone-H4 level at 1 uM after 24 hrs by Western blotting analysis
# Type: cell-based
# MEASUREMENT_CONDITIONS: SW-620
Active and inactive are the calls of the source. No cut-off for these calls is given here.
Possible outcomes: active, inactive

| MOLECULE | LABEL |
| --- | --- |
| CO/N=C1/C(=O)N(CCCCCCC(=O)NO)c2ccc(Cl)cc21 | active |
| CO/N=C1/C(=O)N(CCCCCCC(=O)NO)c2ccc(C)cc21 | inactive |
| O=C(CCCCCCN1C(=O)/C(=N\O)c2cccc(Cl)c21)NO | active |
| CO/N=C1/C(=O)N(CCCCCCC(=O)NO)c2c(Cl)cccc21 | active |
| CO/N=C1/C(=O)N(CCCCCCC(=O)NO)c2ccc(F)cc21 | active |
| Cc1ccc2c(c1)/C(=N/O)C(=O)N2CCCCCCC(=O)NO | active |
| O=C(CCCCCCN1C(=O)/C(=N\O)c2cc(Cl)ccc21)NO | active |
| O=C(CCCCCCN1C(=O)/C(=N\O)c2ccccc21)NO | active |
| CO/N=C1/C(=O)N(CCCCCCC(=O)NO)c2ccc(Br)cc21 | active |
| O=C(CCCCCCN1C(=O)/C(=N\O)c2cc(F)ccc21)NO | active |
| CO/N=C1/C(=O)N(CCCCCCC(=O)NO)c2ccccc21 | active |

----------
# Test system: MCF7
# PROCEDURE_TEXT: Antiproliferative activity against human MCF7 cells after 48 hrs by SRB assay
# Assay type: functional, cell-based
# MEASUREMENT_CONDITIONS: MCF7, 48 h
pIC50: −log10 of the molar value.
Assign fulfilled whenever pIC50 does not fall below 6; assign not fulfilled whenever it does.

| MOLECULE | ASSAYED_TARGET | LABEL |
| --- | --- | --- |
| CO/N=C1/C(=O)N(CCCCCCC(=O)NO)c2ccc(Br)cc21 | MCF7 | not fulfilled |
| CO/N=C1/C(=O)N(CCCCCCC(=O)NO)c2c(Cl)cccc21 | MCF7 | fulfilled |
| O=C(CCCCCCN1C(=O)/C(=N\O)c2cc(Br)ccc21)NO | MCF7 | not fulfilled |
| O=C(CCCCCCN1C(=O)/C(=N\O)c2cccc(Cl)c21)NO | MCF7 | not fulfilled |

----------
# ASSAYED_TARGET: Histone deacetylase (Homo sapiens) (UniProt Q13547+O15379+Q9UBN7+Q92769+Q9UQL6+Q8WUI4+Q9BY41+Q96DB2+P56524+Q9UKV0+Q969S8)
# PROCEDURE_TEXT: Inhibition of HDAC in human SW620 cells assessed as acetylated histone-H4 level at 1 uM after 24 hrs by Western blotting analysis
# Format: cell-based
# MEASUREMENT_CONDITIONS: SW-620
Activity calls are given as the source filed them. No cut-off for these calls is given here.
QUANTITY: inhibition

| MOLECULE | QUANTITY | OBSERVED_RESULT |
| --- | --- | --- |
| CO/N=C1\C(=O)N(CCCCCCC(=O)NO)c2ccc([N+](=O)[O-])cc21 | inhibition | inactive |
| O=C(CCCCCCN1C(=O)/C(=N\O)c2cc([N+](=O)[O-])ccc21)NO | inhibition | inactive |
